- target desc: T1, Human C5 (human, UniProt P01031 19-1676)
- T1 construct: The natural protein has a beta and an alpha chain; also called complement factor 5; complement component 5
- assay remarks: SPR, mAb captured by anti-hFc, 25C
Measured 100 nM Human C5 Bound (RU) of individual entries
property measured: 100 nM Human C5 Bound (RU)

1. H4H12166P7 (antibody, human IgG4, V domains shown, human IgG4 Fc with S108P hinge mutation) VH: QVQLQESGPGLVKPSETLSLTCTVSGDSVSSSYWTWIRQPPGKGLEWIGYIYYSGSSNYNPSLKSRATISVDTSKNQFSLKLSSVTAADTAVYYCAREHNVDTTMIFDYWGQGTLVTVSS VL: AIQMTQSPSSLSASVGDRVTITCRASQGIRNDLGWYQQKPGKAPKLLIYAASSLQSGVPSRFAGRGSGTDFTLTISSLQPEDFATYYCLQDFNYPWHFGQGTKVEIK ... 92 RU
2. H4H12161P (antibody, human IgG4, V domains shown) VH: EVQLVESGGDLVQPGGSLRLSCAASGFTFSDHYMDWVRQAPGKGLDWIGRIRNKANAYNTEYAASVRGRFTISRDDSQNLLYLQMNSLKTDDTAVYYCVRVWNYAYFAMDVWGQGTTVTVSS VL: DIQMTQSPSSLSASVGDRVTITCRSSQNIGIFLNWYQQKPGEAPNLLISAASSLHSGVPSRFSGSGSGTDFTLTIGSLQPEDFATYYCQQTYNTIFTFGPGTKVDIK ... 64 RU
3. H4H12170P (antibody, human IgG4, V domains shown) VH: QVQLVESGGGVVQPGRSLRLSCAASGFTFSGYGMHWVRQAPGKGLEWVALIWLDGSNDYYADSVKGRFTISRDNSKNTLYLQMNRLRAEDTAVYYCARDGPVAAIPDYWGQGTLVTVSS VL: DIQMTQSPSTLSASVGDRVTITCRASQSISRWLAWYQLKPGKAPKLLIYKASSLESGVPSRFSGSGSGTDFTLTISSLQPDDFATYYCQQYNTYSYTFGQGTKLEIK ... 119 RU
